Data provenance: the RNAGym collection of RNA variant scans (doi:10.7554/elife.80360)

B1: HDV Ribozyme (parent)
chain: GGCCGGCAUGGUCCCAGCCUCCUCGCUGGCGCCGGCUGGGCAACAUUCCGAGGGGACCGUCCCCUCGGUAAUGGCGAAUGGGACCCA

- Variants of: B1
- assay.details: self-cleavage, relative activity (ratio to wild type); higher = more cleavage; co-transcriptional
Listing of recorded self-cleavage by entry.
measured.parameter: self-cleavage

>>> measured_number("U72A G81A")
0.113
>>> measured_number("C22G A43G")
0
>>> measured_number("C21A U47A")
0.0462
>>> measured_number("C57A G81U")
0.397
>>> measured_number("U27G U65A")
1.03
